# credit: ChEMBL document CHEMBL1201862

# Tested on: MDA-N
# Assay Text: NCI tumour cell line growth inhibition, 48 h
Active and inactive are the calls of the source. Cut-off read from the data, not from the text of the source: active = GI50 up to about 1.1 µM and inactive = higher.
Outcomes: active, inactive

{"Molecule": "CN(CCc1ccc(N)cc1)[C@H]1CCCC[C@H]1N1CCCC1", "Test Target": "MDA-N", "Answer Label": "inactive"}
{"Molecule": "C[C@H]1O[C@@H](O[C@H]2[C@@H](O)C[C@H](O[C@H]3[C@@H](O)C[C@H](O[C@H]4CC[C@@]5(C)[C@H](CC[C@@H]6[C@@H]5CC[C@]5(C)[C@@H](C7=CC(=O)OC7)[C@@H](O)C[C@]65O)C4)O[C@@H]3C)O[C@@H]2C)C[C@H](O)[C@@H]1O", "Test Target": "MDA-N", "Answer Label": "active"}
{"Molecule": "CCOC(=O)c1c(C)nc2c3ccccc3c(C#N)c(C)n12", "Test Target": "MDA-N", "Answer Label": "inactive"}
{"Molecule": "CC1(C)C(=O)C2(N)CCC1C2 (centres undefined)", "Test Target": "MDA-N", "Answer Label": "inactive"}
{"Molecule": "CC(C)=CCNc1nc(Cl)nc2[nH]cnc12", "Test Target": "MDA-N", "Answer Label": "inactive"}
{"Molecule": "CC[C@@H](CCCC[C@@H]1CC[C@H]2CC(=O)C[C@@H]12)OC", "Test Target": "MDA-N", "Answer Label": "inactive"}
{"Molecule": "NC(=O)c1ncn2c(=O)n(CCCl)nnc12 [MITOZOLOMIDE]", "Test Target": "MDA-N", "Answer Label": "inactive"}
{"Molecule": "O=c1c2ccccc2nc2n1C(c1ccc([N+](=O)[O-])cc1)C2(c1ccccc1)c1ccccc1 (centres undefined)", "Test Target": "MDA-N", "Answer Label": "inactive"}
{"Molecule": "O=C1CCc2nc3ncccc3cc2C1", "Test Target": "MDA-N", "Answer Label": "inactive"}

---

# Test system: SNB-19
# Assay Text: NCI tumour cell line growth inhibition, 48 h
Activity calls are given as the source filed them. Cut-off read from the data, not from the text of the source: active = GI50 up to about 1.1 µM and inactive = higher.
Recorded GI50 values for a group of molecules are listed next.

{"Molecule": "O=C(O[C@H]1[C@@H]2C=CO[C@@H](OC3OC(CO)C(O)C(O)C3O)[C@@H]2[C@@]2(CO)O[C@@H]12)c1ccc(O)c(O)c1 (some centres undefined)", "Test Target": "SNB-19", "GI50": "> 100 µM (inactive)"}
{"Molecule": "CSc1nc2c(nc(N)n2C2OCC(O)C(O)C2O)c(=O)[nH]1 (centres undefined)", "Test Target": "SNB-19", "GI50": "> 100 µM (inactive)"}
{"Molecule": "COc1ccc(C[C@H]2COC(=O)[C@@H]2Cc2cccc(Br)c2)cc1OC", "Test Target": "SNB-19", "GI50": "52 µM (inactive)"}
{"Molecule": "OCC(S)CS.[Bi] (centres undefined)", "Test Target": "SNB-19", "GI50": "13.7 µM (inactive)"}
{"Molecule": "C1CSCCSCCCS[C@@H]2CCCCC2SC1 (some centres undefined)", "Test Target": "SNB-19", "GI50": "> 100 µM (inactive)"}
{"Molecule": "OC1c2ccccc2CCC1C(O)(C(F)(F)F)C(F)(F)F (centres undefined)", "Test Target": "SNB-19", "GI50": "> 100 µM (inactive)"}
{"Molecule": "O=C(CCc1ccc(O)cc1)NCCc1cccc(O)c1", "Test Target": "SNB-19", "GI50": "> 50 µM (inactive)"}
{"Molecule": "CC1(C)CC(C2CC(C)(C)CC(C)(C)[C@H]2O)[C@@H](O)C(C)(C)C1 (some centres undefined)", "Test Target": "SNB-19", "GI50": "> 100 µM (inactive)"}
{"Molecule": "COc1ccc(/C=C/C(=O)c2sc(NC(=S)NC(=O)c3ccc(Cl)cc3)nc2C)cc1OC", "Test Target": "SNB-19", "GI50": "40.5 µM (inactive)"}

---

Recorded GI50 by entry
# Tested on: SF-295
# Assay Text: NCI tumour cell line growth inhibition, 48 h
Calls of active or inactive are those of the source. Cut-off read from the data, not from the text of the source: active = GI50 up to about 1.1 µM and inactive = higher.
Metric Name: GI50

{"Compound": "Cc1sc2nc(-c3ccc(Cl)c([N+](=O)[O-])c3)c(/C=N/NC(=N)N)n2c1C", "Test Target": "SF-295", "Metric Name": "GI50", "Result": "1.76 µM (inactive)"}
{"Compound": "O=S1(=O)c2ccccc2NC(c2ccc3ccccc3c2)CC1c1ccccc1F (stereo not given)", "Test Target": "SF-295", "Metric Name": "GI50", "Result": "> 100 µM (inactive)"}
{"Compound": "COc1ccc(C2=C(Cl)c3cc(OC)c(OC)cc3C2Cl)cc1OC (stereo not given)", "Test Target": "SF-295", "Metric Name": "GI50", "Result": "18.3 µM (inactive)"}
{"Compound": "C=CCCCCNC(=O)C[C@@H]1C2=C(CC[C@H]1O[Si](C)(C)C(C)(C)C)N1C(=O)CCC/C=C\\C1C2 (stereo not given in full)", "Test Target": "SF-295", "Metric Name": "GI50", "Result": "14.9 µM (inactive)"}
{"Compound": "NNC(=O)CS(=O)(=O)Nc1ncccn1", "Test Target": "SF-295", "Metric Name": "GI50", "Result": "> 100 µM (inactive)"}
{"Compound": "COC(=O)/C=C1/N=C(N(C)/N=C/c2ccccc2)NC1=O", "Test Target": "SF-295", "Metric Name": "GI50", "Result": "> 100 µM (inactive)"}
{"Compound": "C#CCCCOc1ncccn1", "Test Target": "SF-295", "Metric Name": "GI50", "Result": "> 100 µM (inactive)"}
{"Compound": "COC(=O)[C@@H]1CN(C(=O)c2ccccc2)C(=O)N1C(=O)OCc1ccccc1", "Test Target": "SF-295", "Metric Name": "GI50", "Result": "> 100 µM (inactive)"}
{"Compound": "COc1cc2cc3c4c(cc(OC)c(OC)c4c2cc1OC)CCN3C(=O)OCCN1CCNCC1", "Test Target": "SF-295", "Metric Name": "GI50", "Result": "15 µM (inactive)"}
{"Compound": "O=C(Cc1ccc(Cl)c(Cl)c1)NCCCN1CCN(CCCN2CCCCC2)CC1", "Test Target": "SF-295", "Metric Name": "GI50", "Result": "19 µM (inactive)"}
{"Compound": "CC1CCC2(C)C(CC=C(C=O)C2(O)C=O)C12CO2 (stereo not given)", "Test Target": "SF-295", "Metric Name": "GI50", "Result": "3.31 µM (inactive)"}
{"Compound": "O=C1CCCC1C(O)(C(F)(F)Cl)C(F)(F)Cl (stereo not given)", "Test Target": "SF-295", "Metric Name": "GI50", "Result": "> 10 µM (inactive)"}
{"Compound": "C=C(C)[C@H]1C2=CC(C(=O)OC)=C(C[C@H](C(=C)C)[C@@H](O)[C@@H](O)C3=C[C@H]1OC3=O)O2", "Test Target": "SF-295", "Metric Name": "GI50", "Result": "> 100 µM (inactive)"}
{"Compound": "CNC(=O)OCC1=C(COC(=O)NC)C(C)N(c2ccc(OC)cc2)C1 (stereo not given)", "Test Target": "SF-295", "Metric Name": "GI50", "Result": "88.9 µM (inactive)"}
{"Compound": "CCCCNC(=S)c1ccc(OC(=O)Nc2ccc(Cl)cc2)cc1", "Test Target": "SF-295", "Metric Name": "GI50", "Result": "> 100 µM (inactive)"}

---

# System: SNB-78
# Assay Text: NCI tumour cell line growth inhibition, 48 h
Active and inactive are the calls of the source. Cut-off read from the data, not from the text of the source: active = GI50 up to about 1.1 µM and inactive = higher.

{"Compound": "O=C(NCCCCCCCCCCCCNC(=O)c1cnc2ccccc2n1)c1cnc2ccccc2n1", "GI50": "76.9 µM (inactive)"}
{"Compound": "CCOC(=O)c1ccc(/N=C\\c2ccc(N(CCC#N)CCC#N)cc2)cc1", "GI50": "> 100 µM (inactive)"}
{"Compound": "O=C(O)C1CC2C=CCC(C2)C1 (stereo not drawn)", "GI50": "> 100 µM (inactive)"}

---

# Test system: UACC-62
# Assay Text: NCI tumour cell line growth inhibition, 48 h
The source made the active and inactive calls. Cut-off read from the data, not from the text of the source: active = GI50 up to about 1.1 µM and inactive = higher.
Labels: True = active, False = inactive

{"Molecule": "O=C1CCSC2=C1SCc1sccc12", "Answer Label": "False"}
{"Molecule": "CCCCCC(C)C[C@H]1CO[C@H](c2ccc[nH]2)N[C@H]1C(=O)OC (some centres undefined)", "Answer Label": "False"}
{"Molecule": "CC(=O)Oc1ccc2c(c1)O/C(=C\\c1ccc(N(C)C)cc1)C2=O", "Answer Label": "False"}
{"Molecule": "CN1CN(c2ccccc2)C2(CCN(CCCC3(c4cccs4)OCCO3)CC2)C1=O", "Answer Label": "False"}
{"Molecule": "O=C(O)c1cccc2cccc(-c3cccc4cccc(C(=O)O)c34)c12", "Answer Label": "False"}
{"Molecule": "CSc1nc2ccccc2c(=O)n1/N=C1\\C(=O)N(CN2CCCCC2)c2ccc(Cl)cc21", "Answer Label": "False"}
{"Molecule": "C=CCCCCNC(=O)C[C@@H]1C2=C(CC[C@H]1O[Si](C)(C)C(C)(C)C)N1C(=O)CCC/C=C\\C1C2 (some centres undefined)", "Answer Label": "False"}
{"Molecule": "Cn1c(=O)nc2n(-c3cccc(Cl)c3)c3ccccc3nc-2c1=O", "Answer Label": "False"}
{"Molecule": "CN(C)CCn1nc(N)c2nc3cc(C(F)(F)F)ccc3nc21", "Answer Label": "False"}
{"Molecule": "O=C1NC(O)n2c(=O)[nH]c(=O)n21 (centres undefined)", "Answer Label": "False"}
{"Molecule": "NC(=S)N/N=C1/C(=O)N(c2ccccc2)C(=O)C1C(=O)Nc1ccccc1 (centres undefined)", "Answer Label": "False"}
{"Molecule": "Cc1cc(OC(=O)c2c(C)cc(OC(=O)c3c(C)cc(O)cc3O)cc2O)cc(O)c1C(=O)O", "Answer Label": "False"}
{"Molecule": "COc1cc(CNC2c3cc4c(cc3C(c3cc(OC)c(OC)c(OC)c3)[C@H]3C(=O)OCC23)OCO4)cc(OC)c1OC (some centres undefined)", "Answer Label": "True"}
{"Molecule": "CC12c3c4ccc(C=O)c3Oc3ccc(C=O)c(c31)Oc1ccc(C=O)c(c12)O4", "Answer Label": "False"}
{"Molecule": "Cc1c2ccncc2c(C)c2c1[nH]c1ccc(OCCN(C)C)cc12", "Answer Label": "True"}
{"Molecule": "O=C(O)c1cc(-c2ccncc2)nc2ccccc12", "Answer Label": "False"}
{"Molecule": "O=S1(=O)c2ccccc2NC(c2ccc3ccccc3c2)CC1c1ccccc1F (centres undefined)", "Answer Label": "False"}
{"Molecule": "CCCC(=O)N[C@H]1CCc2cc(OC)c(OC)c(OC)c2-c2ccc(SC)c(=O)cc21", "Answer Label": "True"}
{"Molecule": "NS(=O)(=O)c1ccc(/N=N/c2ccc(O)c(C(=O)O)c2)cc1 [SALAZOSULFAMIDE]", "Answer Label": "False"}
{"Molecule": "O=[N+]([O-])C(/C=C(\\Cl)[N+](=O)[O-])=C(N1CCCCC1)N1CCCCC1", "Answer Label": "False"}
{"Molecule": "CCn1c2ccc(O)c(C(=O)OC)c2c2cc3ccccc3c(O)c21", "Answer Label": "False"}
{"Molecule": "O=C(CP(=O)(O)O)c1cccs1", "Answer Label": "False"}
{"Molecule": "Nc1ccc2c(c1)N(C(=O)c1cc3cc(NC(=O)c4cc5ccccc5o4)ccc3[nH]1)CC2CCl (centres undefined)", "Answer Label": "True"}
{"Molecule": "O=C(C1=C(C(=O)c2ccccc2)SC2(S1)C(C(=O)c1ccccc1)=C(C(=O)c1ccccc1)Sc1c2ssc1=O)c1ccccc1", "Answer Label": "False"}
{"Molecule": "COc1cc(NS(C)(=O)=O)ccc1NCc1c2ccccc2nc2ccccc12", "Answer Label": "False"}
{"Molecule": "CC[As](CC)SCC1OC(OC(C)=O)C(OC(C)=O)C(OC(C)=O)C1OC(C)=O (centres undefined)", "Answer Label": "False"}
{"Molecule": "CSC(SC)=C1C(=O)N(c2ccccc2)N=C1C", "Answer Label": "False"}
{"Molecule": "O=C(Nc1ccccn1)c1cc2c(cc1Cl)Sc1nccn1S2(=O)=O", "Answer Label": "False"}
{"Molecule": "O=c1c2ccccc2[nH]c2ccc3c(Cl)n[nH]c3c12", "Answer Label": "False"}
